System: HCC1143
Experiment: normalised response (% of control), CellTiter-Glo; higher = more viable cells (100 = DMSO, 0 = benzethonium chloride kill control)
Settings: incubation time: 72 h
assay metric: normalised response
Quote the value and follow it with the unit of measurement.

// known answers, use as guide
Cc1cc(C(C)Nc2ccccc2)c2nc(N3CCOCC3)cc(=O)n2c1 (configuration not stated) [TGX-221] (100 nM) : 96.4%
COc1ccc(C2=N[C@@H](c3ccc(Cl)cc3)[C@@H](c3ccc(Cl)cc3)N2C(=O)N2CCNC(=O)C2)c(OC(C)C)c1 [Nutlin-3] (100 nM) : 105%
CCCC(CCC)C(=O)O [Valproic acid] (10000 nM) : 108%

Task item: Give its normalised response value. Item: CC(C)C[C@H](NC(=O)[C@H](Cc1ccccc1)NC(=O)c1cnccn1)B(O)O [Bortezomib] (10 nM)
Reply: 74.7%

Task item: Would you mind telling me what normalised response value was observed for Cn1cnc2c(F)c(Nc3ccc(Br)cc3F)c(C(=O)NOCCO)cc21 [MEK-162] (10 nM) ?
Reply: 94.8%

Task item: Entry CN(c1ccccc1CNc1nc(Nc2ccc3c(c2)CC(=O)N3)ncc1C(F)(F)F)S(C)(=O)=O (100 nM) has what normalised response?
Reply: 96.5%

Task item: Reported normalised response for O=c1[nH]c(=O)n([C@H]2C[C@H](O)[C@@H](CO)O2)cc1F [Floxuridine] (100 nM) : what is it?
Reply: 103%

----------
Test system: HCC1937
Test: drug sensitivity score (DSS), CellTiter-Blue viability (DSS (AUC-based score)); higher = stronger viability inhibition; extreme values may be limits of the assay
Details: incubation time: 72 h
assay metric: drug sensitivity score
Please respond with just the number, no unit label.

Below: 2 compounds and their reported drug sensitivity score.
COc1c(C)cnc(Cn2cnc3c(Cl)nc(N)nc32)c1C [BIIB021] : 19.4
COC1=CC(c2cc3ccccc3[nH]2)=N/C1=C\c1[nH]c(C)cc1C [Obatoclax] : 25.1

Task item: So what's the measured drug sensitivity score for this one? CC(C)C[C@H](NC(=O)[C@H](Cc1ccccc1)NC(=O)c1cnccn1)B(O)O [Bortezomib]
Reply: 27.3

Task item: Would you mind telling me what drug sensitivity score value was observed for `C[C@@]1(C(=O)Nc2ccc(F)nc2)CCCN1c1nc(Nc2cc(C3CC3)n[nH]2)c2cccn2n1` ?
Reply: 6.32

Task item: Any idea what drug sensitivity score was measured for O=c1[nH]cc(F)c(=O)[nH]1 [Fluorouracil] ?
Reply: 0

Task item: Entry under review: c1ccc(C2CN3CCSC3=N2)cc1 (stereo unspecified) [Tetramisole] . Reported drug sensitivity score?
Reply: 0

Task item: Please give the measured drug sensitivity score for this compound: `COc1ncc(-c2ccc3nccc(-c4ccnnc4)c3c2)cc1NS(=O)(=O)c1ccc(F)cc1F`
Reply: 12.3

Task item: Which drug sensitivity score value is on record for CC(C)(C)c1cc(NC(=O)Nc2ccc(-c3cn4c(n3)sc3cc(OCCN5CCOCC5)ccc34)cc2)no1 [Quizartinib] ?
Reply: 0

Task item: I have this compound here, O=C(c1ccc(OCCN2CCCCC2)cc1)c1c(-c2ccc(O)cc2)sc2cc(O)ccc12 [Raloxifene] , and I need its recorded drug sensitivity score.
Reply: 0

Task item: I would be grateful if you could share the reported drug sensitivity score for CCS(=O)(=O)c1cccc(-c2cc(C(=O)NC3CCN(C)CC3)c(C)c3[nH]c4ncc(C)cc4c23)c1 [TAK-901] .
Reply: 6.44

Task item: Give its drug sensitivity score value. Item: COc1ccc(C2=N[C@@H](c3ccc(Cl)cc3)[C@@H](c3ccc(Cl)cc3)N2C(=O)N2CCNC(=O)C2)c(OC(C)C)c1 [Nutlin-3]
Reply: 0

----------
Tested on: BT-549
Experiment: normalised viability (% of control), CellTiter-Blue; higher = more viable cells (about 100 = DMSO control)
Conditions: 100 nM; incubation time: 72 h
assay metric: normalised viability (%)
Express the result in % but write the number alone.

Examples from the recorded data:
CCCC(CCC)C(=O)O : 92
CN1CCN(c2ccc3nc(-c4c(N)c5c(F)cccc5[nH]c4=O)[nH]c3c2)CC1 : 90.5
COc1ccc(C2=N[C@@H](c3ccc(Cl)cc3)[C@@H](c3ccc(Cl)cc3)N2C(=O)N2CCNC(=O)C2)c(OC(C)C)c1 : 105
O=c1[nH]c(=O)n([C@H]2C[C@H](O)[C@@H](CO)O2)cc1F : 93.4
COC1=C2C[C@@H](C)C[C@H](OC)[C@H](O)[C@@H](C)/C=C(\C)[C@H](OC(N)=O)[C@@H](OC)/C=C\C=C(/C)C(=O)NC(=CC1=O)C2=O : 39.3

Now for another entry.
Task item: Item under review: `COc1cc(Nc2ncc(F)c(Nc3ccc4c(n3)NC(=O)C(C)(C)O4)n2)cc(OC)c1OC` . Reported normalised viability?
Reply: 105

----------
Entries annotated with measured normalised response
Tested on: MDA-MB-436
Assay: normalised response (% of control), CellTiter-Glo; higher = more viable cells (100 = DMSO, 0 = benzethonium chloride kill control)
Conditions: incubation time: 72 h
The answer is to be given in %; state only the numeric part.

CCS(=O)(=O)c1cccc(-c2cc(C(=O)NC3CCN(C)CC3)c(C)c3[nH]c4ncc(C)cc4c23)c1 [TAK-901] (100 nM) : 97.2
COc1c(C)cnc(Cn2cnc3c(Cl)nc(N)nc32)c1C [BIIB021] (1 nM) : 99
COc1cc(Nc2ncc(F)c(Nc3ccc4c(n3)NC(=O)C(C)(C)O4)n2)cc(OC)c1OC [Tamatinib] (1 nM) : 105
CCOc1cc2ncc(C#N)c(Nc3ccc(OCc4ccccn4)c(Cl)c3)c2cc1NC(=O)/C=C/CN(C)C [Neratinib] (0.1 nM) : 94.8

Task item: Look up normalised response for this compound: O=C(c1ccc(OCCN2CCCCC2)cc1)c1c(-c2ccc(O)cc2)sc2cc(O)ccc12 [Raloxifene] (1 nM)
Reply: 105

Task item: Would you mind telling me what normalised response value was observed for C[C@@]1(C(=O)Nc2ccc(F)nc2)CCCN1c1nc(Nc2cc(C3CC3)n[nH]2)c2cccn2n1 (1 nM) ?
Reply: 83.9

Task item: For COc1ccc(C2=N[C@@H](c3ccc(Cl)cc3)[C@@H](c3ccc(Cl)cc3)N2C(=O)N2CCNC(=O)C2)c(OC(C)C)c1 [Nutlin-3] (1 nM) , what is its reported normalised response?
Reply: 119

----------
Test system: HCC1599
Assay: normalised response (% of control), CellTox Green; higher = less cell death (100 = DMSO, 0 = benzethonium chloride kill control)
Conditions: incubation time: 72 h
assay metric: normalised response
# answer = value followed by unit

Cc1cc(C(C)Nc2ccccc2)c2nc(N3CCOCC3)cc(=O)n2c1 (centres undefined) [TGX-221] (1000 nM) : 101%
C[C@@H]1CCN(C(=O)CC#N)C[C@@H]1N(C)c1ncnc2[nH]ccc12 [Tofacitinib] (50 nM) : 116%
CS(=O)(=O)CCNCc1ccc(-c2ccc3ncnc(Nc4ccc(OCc5cccc(F)c5)c(Cl)c4)c3c2)o1 [Lapatinib] (10 nM) : 103%
COc1ncc(-c2ccc3nccc(-c4ccnnc4)c3c2)cc1NS(=O)(=O)c1ccc(F)cc1F (1000 nM) : 88.6%
COC1=CC(c2cc3ccccc3[nH]2)=N/C1=C\c1[nH]c(C)cc1C [Obatoclax] (1000 nM) : 100%

Task item: Fill in the recorded normalised response for this molecule, with HCC1599 as test system: COc1ccc(C2=N[C@@H](c3ccc(Cl)cc3)[C@@H](c3ccc(Cl)cc3)N2C(=O)N2CCNC(=O)C2)c(OC(C)C)c1 [Nutlin-3] (10000 nM)
Reply: 101%

----------
Test system: CAL-148
Assay: normalised viability (% of control), CellTiter-Blue; higher = more viable cells (about 100 = DMSO control)
Conditions: incubation time: 72 h
assay metric: normalised viability (%)
Quick reminder: number only, in %, skip the unit.

Cn1c(=O)c(F)c(Nc2ccc(I)cc2F)c2c(=O)n(C[C@@H](O)CO)cnc21 [TAK-733] (300 nM) : 77.9
C[C@@H]1C=C2C(=O)O[C@@H]3CC[C@H](C1)[C@]23O [Galiellalactone] (15000 nM) : 52.8
CCOc1cc2ncc(C#N)c(Nc3ccc(OCc4ccccn4)c(Cl)c3)c2cc1NC(=O)/C=C/CN(C)C [Neratinib] (300 nM) : 101

Task item: # normalised viability lookup, item CC(C)C[C@H](NC(=O)[C@H](Cc1ccccc1)NC(=O)c1cnccn1)B(O)O [Bortezomib] (300 nM)
Reply: 9.74

----------
Tested on: HCC1937
Test: drug sensitivity score (DSS), CellTiter-Glo (DSS (AUC-based score)); higher = stronger drug effect (viability inhibition or cytotoxicity); extreme values may be limits of the assay
Settings: incubation time: 72 h
Each item that follows carries a reported drug sensitivity score.
Lab note: jot down the number only; don't add units.

Examples with their reported drug sensitivity score follow.
CCCC(CCC)C(=O)O : 0
O=c1[nH]c(=O)n([C@H]2C[C@H](O)[C@@H](CO)O2)cc1F : 10.3
CC(C)(C)c1cc(NC(=O)Nc2ccc(-c3cn4c(n3)sc3cc(OCCN5CCOCC5)ccc34)cc2)no1 : 0
O=c1[nH]cc(F)c(=O)[nH]1 : 0
C#Cc1cccc(Nc2ncnc3cc(OC)c(OCCCCCCC(=O)NO)cc23)c1 : 8.33

Now look at this entry.
Task item: Query (molecule): `COc1ncc(-c2ccc3nccc(-c4ccnnc4)c3c2)cc1NS(=O)(=O)c1ccc(F)cc1F` ; field requested: drug sensitivity score
Reply: 10.6
